The origin of these recorded values is PubChem BioAssay (NCI).

# System: SF-295 CNS
# protocolDescription: NCI-60 one-dose screen, 48 h (100 = growth as untreated, 0 = no growth, -100 = all killed)
# studyConditions: 10 µM unless noted
# Method: Cells are grown in 96 well plates and exposed to the test compound for 48 hours. Compounds are tested at a single concentration, which is 10^-5 M for most compounds. The reported endpoint is percent growth (GI% or GIPRCNT), where numbers from 0 - 100% represent growth inhibition, and numbers from -100% - 0 represent cell death. For example, a value of 40 represents 60% growth inhibition. A value of 0 means no net growth occurred over the course of the experiment. […]
The panel holds about 83,000 compounds, 20% with a hit somewhere; the sample as a whole holds those more often.
Label condition not met if growth falls below 50%; label condition met in every other case.

Known results for molecules:
O=[N+]([O-])c1ccccc1/C=N\NC(=S)N/N=C/c1ccccc1[N+](=O)[O-] :: condition not met
COc1cc2c(cc1O)CC[C@@H]1[C@@H]2CC[C@]2(C)[C@@H](NCCN(C)C)CC[C@@H]12 :: condition not met
CN1CCN(CCCOc2cccc3nc(Nc4ccc(Cl)c(F)c4)ccc23)CC1 :: condition not met

Please tell me: is the molecule "O=c1cc(CSc2nnc(SCc3cc(=O)oc4c3ccc3ccccc34)o2)c2ccc3ccccc3c2o1" at or over 50% in terms of growth? condition met

Please tell me: is the molecule "O=C(CCl)Oc1ccc(-c2ccccc2)c(Br)c1" at or over 50% in terms of growth? condition met

----------
# Test system: NCI-H322M lung
# protocolDescription: NCI-60 one-dose screen, 48 h (100 = growth as untreated, 0 = no growth, -100 = all killed)
# studyConditions: 10 µM unless noted
The panel holds about 83,000 compounds, 20% with a hit somewhere; the sample as a whole holds those more often.
experimentalReadout: growth (%)
Give the quantity in %, number only.

Form field: reported growth of "CC(=O)OCCC/C(=C/c1cc2ccccc2c2ccccc12)[N+](=O)[O-]" 58.2

Form field: reported growth of "COc1cc(C=Nc2oc(-c3ccccc3)c(-c3ccccc3)c2C#N)cc(CN2CCCCC2)c1O" 99.6

Form field: reported growth of "Cc1ccc(-c2onc3c(=O)[nH]nc(-c4ccccc4)c23)cc1" 56.9

Form field: reported growth of "CC1=NN(c2nc(-c3ccc(Cl)cc3)c(C#N)c(N3CCOCC3)n2)C(=O)C1" 101

Form field: reported growth of Cc1cc(N2CCCC2)nc(NC2CCCC(Nc3ccnc4cc(Cl)ccc34)C2)n1 (stereo not given) -42.6

----------
# Tested on: HCT-15 colon
# protocolDescription: NCI-60 one-dose screen, 48 h
# studyConditions: 10 µM unless noted
Compounds without any hit were thinned out: in the full panel of roughly 83,000, 20% have a hit. Activity calls are given as the source filed them. Rule for the calls: active = growth percent below 10; inactive = the rest.
Could you please pick one outcome from this set? yes for active, no for inactive

COc1cc2c(cc1-c1c(C)noc1C)ncc1nc(-c3ccccn3)n([C@H](C)COC(F)F)c12 :: no
Cc1nc(Nc2ccc(F)c(Cl)c2)sc1C(=O)O :: no
COc1ccc(/C=C\c2cc(OC)c(OC)c(OC)c2)cc1OCC(=O)Nc1ccc2nc(C)sc2c1 :: no
Cc1ccc(OC(=O)c2ccc(Cl)cc2)cc1 :: no
COc1cc(-c2nc3cc(Cl)c(Cl)cc3[nH]2)ccc1OCC(=O)N=Nc1c(O)[nH]c2ccccc12 :: no

Just curious, what result did "COc1cccc(-c2nc3sccn3c2-c2ccnc(NCCNS(=O)(=O)c3ccc(F)cc3)c2)c1" get here? no

Just curious, what result did "CCCCCC(=O)Oc1ccc(/C(=C(\C)c2ccc(OC)cc2)c2ccc(OCCN3CCCCC3)cc2)cc1" get here? yes

Just curious, what result did CCOc1cc2ncc(C#N)c(Nc3ccc(OCc4cccc(F)c4)c(Cl)c3)c2cc1NC(=O)CC1CCSS1 (stereo not given) get here? no

Just curious, what result did "CN(C)c1ccc(N=Nc2ccccn2)c(O)c1" get here? no

Just curious, what result did "COc1ccc(C(=S)N2CCN(c3cccc(Cl)c3)CC2)cc1" get here? no
